Target protein (sequence): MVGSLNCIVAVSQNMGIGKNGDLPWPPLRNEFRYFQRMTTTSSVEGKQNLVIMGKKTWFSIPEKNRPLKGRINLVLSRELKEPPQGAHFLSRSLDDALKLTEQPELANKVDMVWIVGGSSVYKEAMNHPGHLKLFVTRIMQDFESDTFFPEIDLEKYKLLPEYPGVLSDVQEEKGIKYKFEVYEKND
quantityMeasured: IC50 (nM)
Answer with a number only, understood to be in nM.

[ask] // IC50 lookup, key: COc1ccc(OC)c(C(C#Cc2c(C)nc(N)nc2N)OC)c1 (racemic)
[reply] 60

----------
assay: Cytotoxicity against human MCF10A cells after 4 hrs by alamar blue assay; details: MCF-10A
quantityMeasured: pIC50
When answering, recall that pIC50 equals minus log10 of the concentration in mol/L, and write that number alone.

molecule: COc1cc(C(C)C#Cc2c(C)nc(N)nc2N)ccc1-c1ccccc1 (racemic)
pIC50: 4.10

molecule: COc1cc(-c2ccc(C(C)(C)C)cc2)cc(C(C)C#Cc2c(C)nc(N)nc2N)c1 (racemic)
pIC50: 4.30

molecule: CCc1nc(N)nc(N)c1C#CCc1cc(OC)ccc1OC
pIC50: 4.20

Turning to the following molecule.
[ask] Report pIC50 for COc1cc(C(O)C#Cc2c(C)nc(N)nc2N)cc(OC)c1OC (racemic) please.
[reply] 3.00
